As shown below, each of these compounds has a reported IC50 value.
Target: Alpha-2A adrenergic receptor (Homo sapiens, UniProt P08913)
Sequence (P08913 whole entry): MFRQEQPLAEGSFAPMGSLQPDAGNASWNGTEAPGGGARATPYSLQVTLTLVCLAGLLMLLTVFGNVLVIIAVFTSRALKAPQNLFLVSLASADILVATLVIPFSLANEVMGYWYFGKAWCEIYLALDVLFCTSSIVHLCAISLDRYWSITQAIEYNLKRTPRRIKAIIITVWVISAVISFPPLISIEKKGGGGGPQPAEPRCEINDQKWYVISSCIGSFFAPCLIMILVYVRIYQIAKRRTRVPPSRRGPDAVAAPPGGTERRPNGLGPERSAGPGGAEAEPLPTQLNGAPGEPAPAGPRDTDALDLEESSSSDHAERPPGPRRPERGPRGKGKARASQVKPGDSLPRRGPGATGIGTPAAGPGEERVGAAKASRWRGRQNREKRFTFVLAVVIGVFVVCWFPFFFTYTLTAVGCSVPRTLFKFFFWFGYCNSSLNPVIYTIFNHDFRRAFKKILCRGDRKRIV
Assay: Inhibitory activity against alpha-2A adrenergic receptor by using [3H]MK-912 as radioligand expressed in COS-1 cells
Field: numeric (nM). Do not append units.

**Q:** Identify the measured IC50 of CN(C)c1nc(N[C@H]2CC[C@@H](CNS(=O)(=O)c3ccc(Br)cc3OC(F)(F)F)CC2)nc2ccccc12 for Alpha-2A adrenergic receptor (Homo sapiens, UniProt P08913).
**A:** 130

Next:
**Q:** Quick check: IC50 on Alpha-2A adrenergic receptor (Homo sapiens, UniProt P08913), item CN(C)c1nc(N[C@H]2CC[C@@H](NC(=O)c3cccc([N+](=O)[O-])c3)CC2)nc2ccccc12 ?
**A:** 97

**Q:** Tell me reported IC50 for CN(C)c1nc(N[C@H]2CC[C@@H](NC(=O)c3ccc(F)cc3)CC2)nc2ccccc12 , tested with Alpha-2A adrenergic receptor (Homo sapiens, UniProt P08913).
**A:** 150

**Q:** Observed IC50 on Alpha-2A adrenergic receptor (Homo sapiens, UniProt P08913) for CN(C)c1nc(N[C@H]2CC[C@@H](NC(=O)c3cccc(C#N)c3)CC2)nc2ccccc12 , please.
**A:** 150
